Property: IC50; scope: individual compounds
# ASSAY_TARGET: Envelope glycoprotein gp160 (Human immunodeficiency virus 1)
# Sequence (Q6QLK5 whole entry, the tested form may be a part): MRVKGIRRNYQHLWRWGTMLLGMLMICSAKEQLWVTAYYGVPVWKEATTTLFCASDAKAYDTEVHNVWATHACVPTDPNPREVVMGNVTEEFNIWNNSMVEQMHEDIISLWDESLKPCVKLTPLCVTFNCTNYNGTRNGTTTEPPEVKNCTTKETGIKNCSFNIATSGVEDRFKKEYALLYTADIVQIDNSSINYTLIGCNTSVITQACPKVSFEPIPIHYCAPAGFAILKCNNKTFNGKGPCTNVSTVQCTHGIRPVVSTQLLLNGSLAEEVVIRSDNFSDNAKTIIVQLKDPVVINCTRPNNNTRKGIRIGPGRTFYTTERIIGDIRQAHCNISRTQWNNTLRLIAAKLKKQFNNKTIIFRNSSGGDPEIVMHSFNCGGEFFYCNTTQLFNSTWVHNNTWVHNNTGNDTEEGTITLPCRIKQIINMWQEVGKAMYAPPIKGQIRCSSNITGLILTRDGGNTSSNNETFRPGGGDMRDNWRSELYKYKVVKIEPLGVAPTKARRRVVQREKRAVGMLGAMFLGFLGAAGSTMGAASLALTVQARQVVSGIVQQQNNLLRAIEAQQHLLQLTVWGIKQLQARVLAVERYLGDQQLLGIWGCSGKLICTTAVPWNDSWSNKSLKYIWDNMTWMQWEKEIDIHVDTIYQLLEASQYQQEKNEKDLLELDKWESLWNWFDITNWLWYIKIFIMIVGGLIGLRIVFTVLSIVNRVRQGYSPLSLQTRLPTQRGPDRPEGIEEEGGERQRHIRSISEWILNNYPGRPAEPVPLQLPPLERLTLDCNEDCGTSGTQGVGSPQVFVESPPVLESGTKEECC
# ASSAY_INFO: inhibitors of HIV fusion peptide binding, primary screen, biochemical, uHTS, fluorescence dequenching (AID 1986)
Active and inactive are the calls of the source. Cut-off read from the data, not from the text of the source: actives have a measured IC50 and inactives only a lower limit.

Take a look at these entries with their results.
{"columns": ["COMPOUND", "IC50"],
 "data": [
  ["COc1ccc2c(c1)cc(C(=O)N/N=C/c1c(O)c(C(=O)O)cc3ccccc13)n2C", "7.59 µM (active)"],
  ["Cc1ccc(N2C(=O)/C(=C/c3ccc(CN(CCC#N)S(C)(=O)=O)o3)C(=O)NC2=S)cc1C", "21.6 µM (active)"],
  ["O=C(COc1cccc2ccccc12)Nc1ccc(Cl)cc1C(=O)O", "31.3 µM (active)"],
  ["Cc1ccc(Cl)cc1N1CCN(C(=O)Cc2c(C(=O)O)[nH]c3ccc(Cl)cc23)CC1", "24.5 µM (active)"],
  ["O=C(O)C(c1ccccc1)N1C(=O)/C(=C\\c2ccc(O)c(O)c2)SC1=S (stereo unspecified)", "13.2 µM (active)"]
]}

Q: Using the record for `O=C(O)/C=C/C(=O)Nc1ccc(C2(c3ccc(NC(=O)/C=C/C(=O)O)cc3)c3ccccc3-c3ccccc32)cc1` , report its IC50.
Ans: 15 µM (active)
